Exercise: for every item that follows, state its recorded IC50.
ASSAYED_TARGET: human ADAMTS-5 (Homo sapiens (Human))
ASSAY_SETUP: read-out: hADAMTS-5 potency IC50

Per the records, this compound ( CC1(CCC(=O)N2CCN(c3ccccc3F)CC2)NC(=O)NC1=O (stereo not shown) [compound 30] ) has IC50 equal to > 4 µM

Recorded result, C[C@H]1CN(C(=O)CCC2(C3CC3)NC(=O)NC2=O)CCN1c1ccnc(Cl)n1 (stereo partly shown) [compound 301] , IC50: > 20 µM

Lab book: IC50 of Cc1noc(N2CCN(C(=O)CCC3(C4CC4)NC(=O)NC3=O)C[C@@H]2C)n1 (stereo partly shown) [compound 352] noted as > 20 µM

Looking up CC1(CCC(=O)N2CCN(c3ccccc3C#N)CC2)NC(=O)NC1=O (stereo not shown) [compound 29] , I found its IC50 recorded as > 4 µM

###

Kindly state IC50 for each of the entries shown.
ASSAYED_TARGET: human ADAMTS-5 (Homo sapiens (Human), UniProt Q9UNA0)
Sequence (Q9UNA0 262-930): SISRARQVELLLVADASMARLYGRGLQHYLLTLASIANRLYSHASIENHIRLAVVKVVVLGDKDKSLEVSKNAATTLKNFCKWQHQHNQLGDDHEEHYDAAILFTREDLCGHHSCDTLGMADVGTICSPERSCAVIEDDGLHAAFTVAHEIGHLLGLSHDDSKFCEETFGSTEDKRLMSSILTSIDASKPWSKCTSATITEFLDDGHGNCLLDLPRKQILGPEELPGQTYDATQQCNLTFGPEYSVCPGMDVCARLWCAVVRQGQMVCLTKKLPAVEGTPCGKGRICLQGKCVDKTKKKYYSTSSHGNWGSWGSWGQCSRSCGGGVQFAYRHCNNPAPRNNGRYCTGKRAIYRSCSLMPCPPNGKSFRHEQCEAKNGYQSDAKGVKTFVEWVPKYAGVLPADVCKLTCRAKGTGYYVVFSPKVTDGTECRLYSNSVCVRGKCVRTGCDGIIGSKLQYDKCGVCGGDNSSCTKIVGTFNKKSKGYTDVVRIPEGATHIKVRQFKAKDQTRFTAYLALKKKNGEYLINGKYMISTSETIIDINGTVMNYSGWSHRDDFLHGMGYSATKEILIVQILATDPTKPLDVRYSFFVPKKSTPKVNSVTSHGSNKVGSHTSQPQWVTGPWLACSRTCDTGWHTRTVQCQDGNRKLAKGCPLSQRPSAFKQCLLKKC
ASSAY_SETUP: read-out: hADAMTS-5 potency IC50

IC50 reported for this compound CC1CN(C(=O)CCC2(c3cccnc3)NC(=O)NC2=O)CCN1c1ccc(Cl)cc1 (centres unmarked) [compound 126] : 106 nM

Quick note, IC50 for Cc1ccccc1N1CCN(C(=O)CCC2(c3cccnc3)NC(=O)NC2=O)CC1 (centres unmarked) [compound 64] landed at 125 nM

Reported IC50 of CC1(CCC(=O)N2CCN(c3ccccc3Cl)CC2)NC(=O)NC1=O (centres unmarked) [compound 19] : > 4000 nM

The compound listed as Cc1cc(Cl)c(F)cc1N1CCN(C(=O)CCC2(C)NC(=O)NC2=O)CC1 (centres unmarked) [compound 93] has a reported IC50 of > 4080 nM

Value of measured IC50 for the entry CC(C)(C)C1(CCC(=O)N2CCN(c3cccc(Cl)c3)CC2)NC(=O)NC1=O (centres unmarked) [compound 107] : 172 nM

# IC50 (compound: CC(C)C1(CCC(=O)N2CCN(c3cc(Cl)cc(Cl)c3)CC2)NC(=O)NC1=O (centres unmarked) [compound 54] ) is 61 nM

The compound identified as O=C1NC(=O)C(CCC(=O)N2CCN(c3cc(Cl)cc(Cl)c3)CC2)(c2cccnc2)N1 (centres unmarked) [compound 111] registered its IC50 at 42 nM

IC50 recorded for this compound, CC1CN(C(=O)CCC2(C)NC(=O)NC2=O)CCN1c1ccccc1 (centres unmarked) [compound 63] , is 1240 nM

So for CC1CN(C(=O)CCC2(C3CC3)NC(=O)NC2=O)CCN1c1cccc(F)c1 (centres unmarked) [compound 149] , the logged IC50 turned out to be 79 nM

For Cc1ccccc1N1CCN(C(=O)CCC2(C3CC3)NC(=O)NC2=O)CC1 (centres unmarked) [compound 35] the compound record lists IC50 as 99 nM

The compound Cc1cccc(N2CCN(C(=O)CCC3(c4cccnc4)NC(=O)NC3=O)CC2)c1C (centres unmarked) [compound 69] showed IC50 equal to 178 nM

###

ASSAYED_TARGET: UniProt P78536
Sequence (P78536 whole entry, looked up, change not shown): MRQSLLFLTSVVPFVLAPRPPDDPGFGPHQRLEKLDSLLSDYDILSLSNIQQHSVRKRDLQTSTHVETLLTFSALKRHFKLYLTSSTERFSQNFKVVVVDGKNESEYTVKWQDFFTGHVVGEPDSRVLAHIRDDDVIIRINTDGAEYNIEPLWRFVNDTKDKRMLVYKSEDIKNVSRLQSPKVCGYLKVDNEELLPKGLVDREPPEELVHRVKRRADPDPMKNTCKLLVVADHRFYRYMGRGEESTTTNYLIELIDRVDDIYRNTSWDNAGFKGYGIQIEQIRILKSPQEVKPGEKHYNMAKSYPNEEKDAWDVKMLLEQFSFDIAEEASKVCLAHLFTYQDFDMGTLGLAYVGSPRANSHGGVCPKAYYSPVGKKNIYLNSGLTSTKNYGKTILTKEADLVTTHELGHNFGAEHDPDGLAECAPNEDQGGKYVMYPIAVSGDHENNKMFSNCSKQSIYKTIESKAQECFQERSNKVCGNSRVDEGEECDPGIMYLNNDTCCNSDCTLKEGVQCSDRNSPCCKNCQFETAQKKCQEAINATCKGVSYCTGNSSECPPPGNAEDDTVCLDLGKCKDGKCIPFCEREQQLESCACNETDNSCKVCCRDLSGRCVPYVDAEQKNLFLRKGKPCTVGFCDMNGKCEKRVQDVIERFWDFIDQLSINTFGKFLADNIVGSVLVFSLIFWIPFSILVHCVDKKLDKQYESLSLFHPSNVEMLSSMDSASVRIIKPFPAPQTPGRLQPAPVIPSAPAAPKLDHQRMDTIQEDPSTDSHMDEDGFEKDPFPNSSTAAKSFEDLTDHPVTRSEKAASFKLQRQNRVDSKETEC
ASSAY_SETUP: read-out: TACE potency IC50
RECORDED_ENDPOINT: IC50

Item: C[C@H]1CN(C(=O)CCC2(c3cnccn3)NC(=O)NC2=O)CCN1c1cc(F)cc(F)c1 (stereo partly drawn) [compound 327] | IC50: > 4 µM

The recorded IC50 for entry Cc1c(Cl)cccc1N1CCN(C(=O)CCC2(C)NC(=O)NC2=O)CC1 (stereo not drawn) [compound 18] equals > 4 µM

IC50 for C[C@H]1CN(C(=O)CCC2(c3cn(C)cn3)NC(=O)NC2=O)CCN1c1cc(F)cc(F)c1 (stereo partly drawn) [compound 361] is > 20 µM

Data point: CC1(CCC(=O)N2CCN(c3cccnc3)CC2)NC(=O)NC1=O (stereo not drawn) [compound 43] ; IC50 = > 20 µM

Please fill in: IC50 reported for O=C1NC(=O)C(CCC(=O)N2CCN(c3cc(Cl)cc(Cl)c3)CC2)(C2CC2)N1 (stereo not drawn) [compound 55] = > 3.31 µM

So, COC(CC1(C2CC2)NC(=O)NC1=O)C(=O)N1CCN(c2cc(Cl)cc(Cl)c2)CC1 (stereo not drawn) [compound 206] ? Its IC50 was > 4 µM

Recorded IC50 (compound COc1cccc(C2(CCC(=O)N3CCN(c4cc(F)cc(F)c4)[C@@H](C)C3)NC(=O)NC2=O)n1 (stereo partly drawn) [compound 336] ): > 4 µM

// IC50 lookup, compound = CC1CN(C(=O)CCC2(c3cccnc3)NC(=O)NC2=O)CCN1c1ccc(Cl)cc1 (stereo not drawn) [compound 126] , result: > 4 µM

Entry under test: Cc1cccc(C2(CCC(=O)N3CCN(c4cc(F)cc(F)c4)[C@@H](C)C3)NC(=O)NC2=O)n1 (stereo partly drawn) [compound 309] . Its IC50 was > 4 µM
